Recorded pIC50 values for a group of molecules are listed next.
# SYSTEM_TESTED: UniProt O15530
# Sequence (O15530 1-556): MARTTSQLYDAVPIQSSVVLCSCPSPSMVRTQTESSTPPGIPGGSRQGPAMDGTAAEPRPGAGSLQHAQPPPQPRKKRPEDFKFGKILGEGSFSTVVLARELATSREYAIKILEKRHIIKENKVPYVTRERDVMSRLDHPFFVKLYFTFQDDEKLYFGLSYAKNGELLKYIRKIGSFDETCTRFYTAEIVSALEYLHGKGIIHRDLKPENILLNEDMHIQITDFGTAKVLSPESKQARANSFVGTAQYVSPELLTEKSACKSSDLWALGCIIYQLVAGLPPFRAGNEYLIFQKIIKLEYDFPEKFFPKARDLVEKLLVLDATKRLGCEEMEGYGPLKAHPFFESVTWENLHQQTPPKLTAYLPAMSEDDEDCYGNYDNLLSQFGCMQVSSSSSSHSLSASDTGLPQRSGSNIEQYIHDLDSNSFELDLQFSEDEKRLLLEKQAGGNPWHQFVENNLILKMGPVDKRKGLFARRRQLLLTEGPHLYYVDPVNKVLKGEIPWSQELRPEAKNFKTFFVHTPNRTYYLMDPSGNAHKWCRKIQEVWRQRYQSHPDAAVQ
Note on units: pIC50 is unitless, being -log10 of a concentration expressed in mol/L.

Reference set, count: 2
{"ITEM_SMILES": "COc1cc2c(cc1OCCN1CC1)ncc1c(N)nc3c(C)c(N)ccc3c12", "QUANTITY_KIND": "pIC50", "OBSERVED_VALUE": 6.32}
{"ITEM_SMILES": "COc1cc2c(cc1OCCC1CCN(C)CC1)ncc1c(N)nc3c(C)c(N)ccc3c12", "QUANTITY_KIND": "pIC50", "OBSERVED_VALUE": 6.42}

Which pIC50 value belongs to COc1cc2ncc3c(N)nc4c(C)c(OC)ccc4c3c2cc1OC ?
7.31

Entry COc1cc2ncc3c(N)nc4c(C)c(O)ccc4c3c2cc1OC please
7.34

Entry COc1cc2c(cc1OCCN1CCOCC1)ncc1c(N)nc3c(C)c(N)ccc3c12 please
7.24

Entry COc1cc2c(cc1OCCN1CCCCCC1)ncc1c(N)nc3c(C)c(N)ccc3c12 please
6.46

Entry CCN(CC)CCOc1cc2ncc3c(N)nc4c(C)c(N)ccc4c3c2cc1OC please
6.46

Entry COc1cc2ncc3c(N)nc4c(C)c(N)ccc4c3c2cc1OC please
7.03

Entry COc1cc2c(cc1OCCCN1CCCCC1)ncc1c(N)nc3c(C)c(N)ccc3c12 please
6.61
